Hey, just so you know, these numbers are from patent US9796716B2.

- Tested on: Splenocytes (B cell proliferation stimulated with anti-IgM F(ab′)2)
- METHOD NOTES: Splenic Cell Proliferation Assay
- Type: cell-based
- ASSAY CONTEXT: Mus musculus, Splenocyte, 72 h, CD1 mouse splenocytes, 2.5 ug/ml anti-IgM F(ab′)2 for 72 h, Cell Titer-Glo; read-out: EC50 (nM), Inhibition of splenic cell proliferation
Listed below: EC50 values for each entry.

Worked examples, 6 molecules total:
# ENTRY SMILES, EC50
rows = [
    ("Nc1ncnc2c1c(-c1ccc(Oc3cccc(COc4ccccc4C(F)(F)F)c3)cc1)nn2C1CCOCC1", "< 100 nM"),
    ("Cn1cncc1COc1cc(F)cc(Oc2ccc(-c3nn(C4CCCCC4)c4ncnc(N)c34)cc2)c1", "< 100 nM"),
    ("[2H]C([2H])(Oc1cc(F)cc(Oc2ccc(-c3nn(C4CCOCC4)c4ncnc(N)c34)cc2)c1)c1cnc(C)s1", "< 100 nM"),
    ("Cc1ncc(COc2cc(F)cc(Oc3ccc(-c4nn(C5CCOCC5)c5ncnc(N)c45)cc3)c2)[nH]1", "100 to 1000 nM"),
    ("Nc1ncnc2c1c(-c1ccc(Oc3cccc(OCc4cncs4)c3)cc1)nn2CCc1ccncc1", "100 to 1000 nM"),
    ("[2H]C([2H])(Oc1cc(F)cc(Oc2ccc(-c3nn(C4CCOCC4)c4ncnc(N)c34)c(F)c2)c1)c1cncn1C", "< 100 nM"),
]

Simply: N#Cc1ccccc1COc1cccc(Oc2ccc(-c3nn(C4CCOCC4)c4ncnc(N)c34)cc2)c1 , Splenocytes (B cell proliferation stimulated with anti-IgM F(ab′)2), EC50 = < 100 nM
